// reported IC50 for each item listed
# measuredTarget: activated ERK2 (Homo sapiens (Human))
# Sequence (P28482 whole entry): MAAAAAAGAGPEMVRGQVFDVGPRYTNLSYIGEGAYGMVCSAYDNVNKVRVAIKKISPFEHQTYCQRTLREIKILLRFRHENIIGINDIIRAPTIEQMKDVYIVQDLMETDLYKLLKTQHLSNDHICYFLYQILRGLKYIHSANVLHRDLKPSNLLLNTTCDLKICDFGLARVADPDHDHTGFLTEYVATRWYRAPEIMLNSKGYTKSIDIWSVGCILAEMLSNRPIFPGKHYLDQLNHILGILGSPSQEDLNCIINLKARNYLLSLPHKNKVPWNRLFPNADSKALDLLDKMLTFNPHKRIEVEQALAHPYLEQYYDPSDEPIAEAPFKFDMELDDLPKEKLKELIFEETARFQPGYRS
# assayOverview: Activated ERK2 kinase assay (AlphaScreen, ERKtide peptide phosphorylation)
# Assay type: biochemical
# conditionsUsed: […] ERK2, 200 nM ERKtide peptide, 35 μM ATP, 30 min preincubation; read-out: ERK2 IC50

>  <compound>
CC1(C)c2cnc(NC3CCOCC3)nc2CN1C(=O)NCc1cccc(F)c1 [compound 20]

>  <quantityUnit>
nM

>  <IC50>
16

$$$$
>  <compound>
CC1(C)c2cnc(NC3CCOCC3)nc2CN1C(=O)NCC1CCCCO1 (centres unmarked) [compound 14]

>  <quantityUnit>
nM

>  <IC50>
328

$$$$
>  <compound>
CC1(C)c2cnc(NC3CCOCC3)nc2CN1C(=O)NCc1ccc(Oc2ccccc2)cc1 [compound 133]

>  <quantityUnit>
nM

>  <IC50>
11

$$$$
>  <compound>
CC1(C)c2cnc(NC3CCOCC3)nc2CN1C(=O)NCc1ccccc1S(C)(=O)=O [compound 112]

>  <quantityUnit>
nM

>  <IC50>
806

$$$$
>  <compound>
CC(C)NC(=O)N1Cc2nc(NC3CCOCC3)ncc2C1(C)C [compound 51]

>  <quantityUnit>
nM

>  <IC50>
938

$$$$
>  <compound>
C[C@@H](NC(=O)N1Cc2nc(NC3CCOCC3)ncc2C1(C)CO)c1ccccc1 (some centres unmarked) [compound 92]

>  <quantityUnit>
nM

>  <IC50>
1530

$$$$
>  <compound>
CC1(C)c2cnc(Nc3ccc(F)cc3)nc2CN1C(=O)N[C@H](CO)c1ccccc1 [compound 52]

>  <quantityUnit>
nM

>  <IC50>
107

$$$$
>  <compound>
C[C@@H](NC(=O)N1Cc2nc(NC3CCOCC3)ncc2C1(C)C)c1cc(F)cc(S(C)(=O)=O)c1 [compound 115]

>  <quantityUnit>
nM

>  <IC50>
2

$$$$
